- Assay system: PI3K delta (Homo sapiens (Human))
- Sequence (O00329 other isoform, or with tags, fused parts or gaps linker GGGGGG): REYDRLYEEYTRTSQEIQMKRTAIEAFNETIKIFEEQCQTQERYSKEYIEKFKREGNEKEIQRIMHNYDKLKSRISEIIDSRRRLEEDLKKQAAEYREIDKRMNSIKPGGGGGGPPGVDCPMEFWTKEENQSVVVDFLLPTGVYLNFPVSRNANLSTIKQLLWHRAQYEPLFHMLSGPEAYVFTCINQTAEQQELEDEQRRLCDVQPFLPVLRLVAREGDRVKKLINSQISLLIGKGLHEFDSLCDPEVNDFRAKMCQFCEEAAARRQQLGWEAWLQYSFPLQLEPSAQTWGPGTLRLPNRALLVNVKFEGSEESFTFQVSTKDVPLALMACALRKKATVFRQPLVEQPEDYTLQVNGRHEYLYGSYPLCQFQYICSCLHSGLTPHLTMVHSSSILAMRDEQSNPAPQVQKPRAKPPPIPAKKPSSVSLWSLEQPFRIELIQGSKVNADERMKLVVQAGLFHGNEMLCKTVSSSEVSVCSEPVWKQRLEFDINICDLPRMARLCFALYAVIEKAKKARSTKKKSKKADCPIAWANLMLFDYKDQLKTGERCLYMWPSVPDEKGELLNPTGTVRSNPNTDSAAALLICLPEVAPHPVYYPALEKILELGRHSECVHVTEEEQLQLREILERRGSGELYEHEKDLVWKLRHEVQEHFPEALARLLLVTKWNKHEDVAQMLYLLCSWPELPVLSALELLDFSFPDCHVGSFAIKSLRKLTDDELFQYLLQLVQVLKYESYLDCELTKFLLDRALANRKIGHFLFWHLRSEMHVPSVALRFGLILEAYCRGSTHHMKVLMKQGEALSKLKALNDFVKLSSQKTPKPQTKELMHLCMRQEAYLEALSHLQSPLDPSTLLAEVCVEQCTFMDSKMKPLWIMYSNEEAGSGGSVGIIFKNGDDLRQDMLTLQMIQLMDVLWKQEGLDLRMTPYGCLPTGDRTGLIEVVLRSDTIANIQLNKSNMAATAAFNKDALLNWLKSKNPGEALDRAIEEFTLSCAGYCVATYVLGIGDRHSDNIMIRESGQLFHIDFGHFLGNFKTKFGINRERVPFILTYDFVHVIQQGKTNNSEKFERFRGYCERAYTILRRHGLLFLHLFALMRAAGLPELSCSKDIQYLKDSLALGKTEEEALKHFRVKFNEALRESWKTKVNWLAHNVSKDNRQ
- Procedure summary: Enzymatic PI3K delta isoform inhibition (lipid kinase activity, Kinase-Glo luminescence)
- Condition details: Enzymatic assay
Quantity: pIC50
Numbers only, as −log10 of the molar value.

// solved cases for pIC50 follow
compound="CS(=O)(=O)c1ncc(N2CCOc3ccc(O[C@H]4CCN(C(=O)C5CCOCC5)C4)cc32)cc1Cl [Example B79]" value_measured=8.52
compound="CCC(=O)N1C[C@@H](Oc2ccc3c(c2)N(c2cnc(OC)c(C#N)c2)CCO3)CO1 [Example D23]" value_measured=6.67
compound="COc1ncc(N2CCOc3ccc(O[C@H]4CCN(C(=O)C5CCS(=O)(=O)CC5)C4)c(C)c32)cc1C(F)F [X]" value_measured=7.21
compound="Cc1cc(N2CCOc3ccc(O[C@H]4CCN(C(=O)C5CCOCC5)C4)cc32)cnc1Cl [Example B58]" value_measured=8.40
compound="COc1ccc(N2CCOc3ccc(O[C@H]4CCN(C(=O)CN(C)C)C4)cc32)cn1 [Example D3]" value_measured=6.66

// each compound listed below needs its pIC50
1. CCC(=O)N1CC[C@H](Oc2ccc3c(c2)N(c2cncc(S(=O)(=O)C(C)C)c2)CCO3)C1 [Example B5]
2. COc1ncc(N2CCOc3ccc(O[C@H]4CCN(C(=O)CS(C)(=O)=O)C4)cc32)cc1C#N [Example C11]
3. Cc1cc(N2CCOc3ccc(O[C@H]4CCN(C(=O)C5CC5)C4)cc32)cnc1S(C)(=O)=O [Example B80]

output:
7.60
7.64
8.40

----------
- Assay system: PI3K alpha (Homo sapiens (Human), UniProt P42336)
- Sequence (P42336 other isoform, or with tags, fused parts or gaps): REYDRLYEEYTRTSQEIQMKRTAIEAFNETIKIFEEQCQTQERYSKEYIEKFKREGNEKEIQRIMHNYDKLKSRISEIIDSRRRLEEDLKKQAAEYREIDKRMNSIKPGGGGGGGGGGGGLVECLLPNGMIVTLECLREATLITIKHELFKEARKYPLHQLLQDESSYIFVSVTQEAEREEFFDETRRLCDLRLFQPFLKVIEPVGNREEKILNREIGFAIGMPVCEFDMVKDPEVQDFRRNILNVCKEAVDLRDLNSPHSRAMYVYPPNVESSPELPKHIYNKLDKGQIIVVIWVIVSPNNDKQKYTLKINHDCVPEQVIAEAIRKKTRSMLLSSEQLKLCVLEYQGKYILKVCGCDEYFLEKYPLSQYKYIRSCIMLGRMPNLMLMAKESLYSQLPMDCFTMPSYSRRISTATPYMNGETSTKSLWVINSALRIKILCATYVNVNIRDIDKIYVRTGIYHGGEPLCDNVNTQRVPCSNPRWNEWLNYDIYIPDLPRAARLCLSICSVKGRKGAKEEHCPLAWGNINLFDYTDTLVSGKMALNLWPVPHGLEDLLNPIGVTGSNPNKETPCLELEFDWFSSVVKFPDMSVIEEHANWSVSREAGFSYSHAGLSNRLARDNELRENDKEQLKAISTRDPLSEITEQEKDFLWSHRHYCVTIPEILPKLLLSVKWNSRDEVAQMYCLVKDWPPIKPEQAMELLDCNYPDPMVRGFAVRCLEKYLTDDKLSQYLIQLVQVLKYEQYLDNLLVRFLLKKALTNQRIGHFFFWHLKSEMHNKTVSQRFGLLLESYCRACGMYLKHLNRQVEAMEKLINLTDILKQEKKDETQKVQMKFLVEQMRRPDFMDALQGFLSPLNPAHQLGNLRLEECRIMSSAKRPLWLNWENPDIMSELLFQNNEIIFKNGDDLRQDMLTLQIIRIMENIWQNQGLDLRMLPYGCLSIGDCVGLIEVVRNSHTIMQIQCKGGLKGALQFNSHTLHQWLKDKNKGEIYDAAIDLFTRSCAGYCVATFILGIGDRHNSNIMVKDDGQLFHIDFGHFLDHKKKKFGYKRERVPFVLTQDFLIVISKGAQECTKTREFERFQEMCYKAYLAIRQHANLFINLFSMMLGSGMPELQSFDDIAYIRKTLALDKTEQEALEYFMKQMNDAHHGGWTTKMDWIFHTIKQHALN
- Procedure summary: Enzymatic PI3K alpha isoform inhibition (lipid kinase activity, Kinase-Glo luminescence)
- Condition details: Enzymatic assay
Quantity: log10(IC50) (log10 of the value in nM)
All values: log10 IC50 [nM].

Worked set:
compound=COc1ncc(N2CCOc3ccc(O[C@H]4CCN(C(=O)[C@H]5CCN(C(C)=O)C5)C4)cc32)cc1C#N quantity=log10(IC50) value_measured=3.00
compound=CCOc1ncc(N2CCOc3ccc(O[C@H]4CCN(C(=O)C5CCS(=O)(=O)CC5)C4)cc32)cc1C quantity=log10(IC50) value_measured=3.32
compound=Cc1cc(N2CCOc3ccc(O[C@H]4CCN(C(=O)C5CCOCC5)C4)cc32)ccn1 quantity=log10(IC50) value_measured=3.88
compound=CCC(=O)N1CC[C@H](Oc2ccc3c(c2)N(c2cnc(OC)c(C)c2)CCO3)C1 quantity=log10(IC50) value_measured=2.47
compound=COc1ncc(N2CCOc3ccc(O[C@H]4CCN(C(=O)CC#N)C4)cc32)cc1Cl quantity=log10(IC50) value_measured=2.07

Each compound below has a recorded value; state its log10(IC50).
1. COc1ncc(N2CCOc3ccc(O[C@H]4CCN(C(=O)Cc5cn(C)cn5)C4)cc32)cc1C#N
2. CS(=O)(=O)c1ncc(N2CCOc3ccc(O[C@H]4CCN(C(=O)[C@@H]5CCOC5)C4)cc32)cc1C(F)F
3. Cc1cc(N2CCOc3ccc(O[C@H]4CCN(S(=O)(=O)C5CCOCC5)C4)cc32)cnc1S(C)(=O)=O
4. COc1ccc(N2CCOc3ccc(O[C@H]4CCN(C(=O)C5CCOCC5)C4)cc32)cn1
5. CC[S+]([O-])c1ccc(N2CCOc3ccc(O[C@H]4CCN(C(=O)C5CCOCC5)C4)cc32)cn1 (stereo partly drawn)
6. COc1ncc(N2CCOc3ccc(O[C@H]4CCN(C(=O)[C@@H]5CCNC5)C4)cc32)cc1C#N
7. COc1ncc(N2CCOc3ccc(O[C@H]4CCN(C(=O)c5cncnc5)C4)cc32)cc1C#N

output:
2.47
2.32
2.68
3.71
3.55
2.85
2.82

// data source = patent US9539260B2
